Just for reference, patent US20220220103A1 is where these values come from.

target: CDK2-CYCLINA (Homo sapiens); experiment: Microfluidic LabChip inhibition assay, CDK2-CYCLINA; assay type: biochemical; settings: Table 3a; ATP 50 μM
pIC50: −log10 of the molar value.
Assay Readout: pIC50

Below, 2 compounds whose answers are already recorded.
Compound | Tested On | Endpoint Value
CC(=O)c1c(C)c2cnc(Nc3ccc(OCCN(C)C)cc3)nc2n(C2CCCC2)c1=O [Compound B59] | CDK2-CYCLINA (Homo sapiens) | 6.68
COc1cc(Nc2ncc3c(C)c(C(C)=O)c(=O)n(C4CCCC4)c3n2)ccc1OCCN(C)C | CDK2-CYCLINA (Homo sapiens) | 6.55

a. CC(=O)c1c(C)c2cnc(Nc3ccc(N(C)CCN(C)C)cc3)nc2n(C2CCCC2)c1=O
b. CN(C)C(=O)c1cc2cnc(NC3CCN(S(C)(=O)=O)CC3)nc2n(C2CCCC2)c1=O
Identify the entry with the larger pIC50. Options: a and b Answer by stating the label of the chosen item.
a
(a: 7.09, b: 6.55)

====

molecular target: CDK7 CyclinH (Homo sapiens); assay: Inhibition assay, CDK7 CyclinH; type: biochemical; conditions: Table 3a
Assay Readout: IC50 (µM)

Molecule | IC50 (µM)
CS(=O)(=O)N1CCC(Nc2ncc3cc(C#N)c(=O)n(C4CCCC4)c3n2)CC1 | 0.745
N#Cc1cc2cnc(Nc3ccc(N4CCN(CCO)CC4)c(F)c3)nc2n(C2CCCC2)c1=O | 0.327

A. COc1cc(Nc2ncc3c(C)c(C(C)=O)c(=O)n(C4CCCC4)c3n2)ccc1OCCN(C)C
B. CC(=O)c1c(C)c2cnc(Nc3ccc(OCCN(C)C)cc3)nc2n(C2CCCC2)c1=O [Compound B59]
C. CC(=O)c1c(C)c2cnc(Nc3ccc(N4CCN(C)CC4)cc3)nc2n(C23CC(C2)C3)c1=O
Rank the items in ascending order with respect to IC50. List each label, following the requested order.
B, A, C

====

target: UniProt:P50750; experiment: Microfluidic LabChip inhibition assay, CDK9-CYCLINT1; format: biochemical; conditions: Table 3a; ATP 10 μM
Sequence (P50750 whole entry): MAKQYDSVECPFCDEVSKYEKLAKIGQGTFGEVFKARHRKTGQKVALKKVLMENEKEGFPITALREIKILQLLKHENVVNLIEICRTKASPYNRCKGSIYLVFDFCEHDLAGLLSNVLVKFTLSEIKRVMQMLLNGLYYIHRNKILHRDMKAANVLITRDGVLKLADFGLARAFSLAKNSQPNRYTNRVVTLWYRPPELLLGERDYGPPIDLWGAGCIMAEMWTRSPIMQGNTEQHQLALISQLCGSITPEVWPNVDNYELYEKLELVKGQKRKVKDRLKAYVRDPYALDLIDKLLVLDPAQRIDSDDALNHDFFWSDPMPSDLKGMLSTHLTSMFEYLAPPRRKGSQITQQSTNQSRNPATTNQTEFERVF
Sequence (O60563 whole entry partner): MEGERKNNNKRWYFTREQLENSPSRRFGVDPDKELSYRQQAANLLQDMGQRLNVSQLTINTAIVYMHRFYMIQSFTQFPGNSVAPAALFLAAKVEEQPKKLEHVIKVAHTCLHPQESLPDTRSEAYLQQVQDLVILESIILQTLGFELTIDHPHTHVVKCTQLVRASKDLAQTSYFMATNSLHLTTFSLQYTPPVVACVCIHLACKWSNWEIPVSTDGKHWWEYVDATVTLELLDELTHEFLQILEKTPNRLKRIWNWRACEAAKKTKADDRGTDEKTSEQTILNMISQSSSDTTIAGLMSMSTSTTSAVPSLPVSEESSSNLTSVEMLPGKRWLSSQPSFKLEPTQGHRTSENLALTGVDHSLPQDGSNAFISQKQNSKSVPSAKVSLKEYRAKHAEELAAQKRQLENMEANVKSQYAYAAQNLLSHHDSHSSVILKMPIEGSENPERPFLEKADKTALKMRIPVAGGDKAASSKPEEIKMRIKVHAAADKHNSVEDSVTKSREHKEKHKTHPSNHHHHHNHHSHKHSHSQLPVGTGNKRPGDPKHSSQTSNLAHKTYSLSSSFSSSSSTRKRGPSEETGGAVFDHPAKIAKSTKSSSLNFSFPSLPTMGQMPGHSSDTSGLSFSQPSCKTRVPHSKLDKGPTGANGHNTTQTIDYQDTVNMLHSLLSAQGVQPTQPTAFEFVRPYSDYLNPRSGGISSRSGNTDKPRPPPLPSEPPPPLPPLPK
Assay Readout: IC50 (nM)

Compound | IC50 (nM)
CN(C)CCOc1ccc(Nc2ncc3cc(C#N)c(=O)n(C45CC(C4)C5)c3n2)nc1 [Compound B149] | 733

1. CC(=O)c1c(C)c2cnc(Nc3ccc(OCCN(C)C)cc3)nc2n(C2CCCC2)c1=O [Compound B60]
2. CN1CC2(C1)CN(c1ccc(Nc3ncc4cc(C#N)c(=O)n(C5CCCC5)c4n3)cc1)C2 [Compound B159]
3. CN(C)C(=O)c1cc2cnc(NC3CCN(S(C)(=O)=O)CC3)nc2n(C2CCCC2)c1=O [Compound B153]
Rank the items in ascending order with respect to IC50. List each label, following the requested order.
1, 2, 3
(1: 31.8 nM, 2: 90.6 nM, 3: 4580 nM)

P. N#Cc1cc2cnc(Nc3ccc(N4CCN(CCO)CC4)c(F)c3)nc2n(C2CCCC2)c1=O [Compound B106]
Q. CC(=O)c1c(C)c2cnc(Nc3ccc(N4CCN(C)CC4)cc3)nc2n(C23CC(C2)C3)c1=O [Compound B96]
Quick one: lower IC50, P or Q ? Answer by stating the label of the chosen item.
P
(P: 27.5 nM, Q: 97.6 nM)

====

biological target: CDK4-CYCLIND1 (Homo sapiens); assay: Microfluidic LabChip inhibition assay, CDK4-CYCLIND1; type: biochemical; conditions: Table 3b; ATP 200 μM; second values in parentheses on the line below, not explained; read-out: CDK4 CyclinD1 IC50
Sequence (P11802 whole entry): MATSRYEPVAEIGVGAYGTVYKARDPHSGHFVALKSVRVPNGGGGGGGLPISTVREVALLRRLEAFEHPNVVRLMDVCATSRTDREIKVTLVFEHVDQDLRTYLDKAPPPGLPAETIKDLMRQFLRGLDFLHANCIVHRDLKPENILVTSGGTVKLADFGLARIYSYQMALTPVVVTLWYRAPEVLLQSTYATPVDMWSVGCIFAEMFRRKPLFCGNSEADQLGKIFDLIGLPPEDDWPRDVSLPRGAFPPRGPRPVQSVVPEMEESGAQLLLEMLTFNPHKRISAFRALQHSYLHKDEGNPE
Sequence (P24385 whole entry partner): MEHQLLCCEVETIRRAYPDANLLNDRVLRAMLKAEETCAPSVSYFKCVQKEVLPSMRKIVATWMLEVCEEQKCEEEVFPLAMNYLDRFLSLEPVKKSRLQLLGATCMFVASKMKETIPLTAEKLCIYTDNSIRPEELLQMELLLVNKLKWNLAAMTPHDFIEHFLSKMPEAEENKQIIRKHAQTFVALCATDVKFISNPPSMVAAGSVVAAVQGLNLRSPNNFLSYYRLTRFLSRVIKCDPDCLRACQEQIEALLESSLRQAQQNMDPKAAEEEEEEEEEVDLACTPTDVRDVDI
pIC50: −log10 of the molar value.
Assay Readout: pIC50

Molecule | Tested On | Assay Readout | Endpoint Value
CC(=O)c1c(C)c2cnc(Nc3ccc(OCCN(C)C)c(C)c3)nc2n(C2CCCC2)c1=O | CDK4-CYCLIND1 (Homo sapiens) | pIC50 | 5.80

a. CN1CCN(c2ccc(Nc3ncc4cc(C(=O)N(C)C)c(=O)n(C5CCCC5)c4n3)cc2F)CC1
b. CNC(=O)c1cc2cnc(Nc3ccc(N4CCN(C)CC4)nc3)nc2n(C2CCCC2)c1=O
c. CN1CC2(C1)CN(c1ccc(Nc3ncc4cc(C#N)c(=O)n(C5CCCC5)c4n3)cc1)C2
d. Cc1c(C(=O)N(C)C)c(=O)n(C23CC(C2)C3)c2nc(NC3CC4CCC3C4)ncc12 (centres unmarked) [Compound B157]
e. Cc1c(C(=O)N(C)C)c(=O)n(C23CC(C2)C3)c2nc(NC3CCN(S(C)(=O)=O)CC3)ncc12
Rank the items in ascending order with respect to pIC50. List each label, following the requested order.
d, b, e, a, c

====

target: UniProt P50750; assay: Microfluidic LabChip inhibition assay, CDK9-CYCLINT1; type: biochemical; conditions: Table 3a; ATP 10 μM
Assay Readout: IC50 (nM)

Below, 3 compounds whose answers are already recorded.
Compound | IC50 [nM]
Cc1c(C(=O)N(C)C)c(=O)n(C23CC(C2)C3)c2nc(NC3CC4CCC3C4)ncc12 (stereo not drawn) [Compound B157] | 2450
CS(=O)(=O)N1CCC(Nc2ncc3cc(C#N)c(=O)n(C4CCCC4)c3n2)CC1 | 105
COc1cc(Nc2ncc3c(C)c(C(C)=O)c(=O)n(C4CCCC4)c3n2)ccc1OCCN(C)C | 336

I. CC(=O)c1c(C)c2cnc(Nc3ccc(OCCN4CCCC4)cn3)nc2n(C2CCCC2)c1=O
II. CC(=O)c1c(C)c2cnc(Nc3ccc(OCCN(C)C)c(C)c3)nc2n(C2CCCC2)c1=O
III. Cc1c(C(=O)N(C)C)c(=O)n(C23CC(C2)C3)c2nc(NC3CC4CCC3C4)ncc12 (stereo not drawn) [Compound B158]
IV. CC(=O)c1c(C)c2cnc(Nc3ccc(N4CCN(C)CC4)cn3)nc2n(C23CC(C2)C3)c1=O
V. Cc1c(C(=O)N(C)C)c(=O)n(C2CCCC2)c2nc(Nc3ccc(N4CC(C)NC(C)C4)cc3)ncc12 (stereo not drawn)
Please list these compounds in decreasing order of IC50. List each label, following the requested order.
V, III, IV, II, I
(V: 5140 nM, III: 2750 nM, IV: 1230 nM, II: 790 nM, I: 422 nM)

====

target: CDK1/B (Homo sapiens); assay: Inhibition assay, CDK1/B; type: biochemical
Sequence (P06493 whole entry): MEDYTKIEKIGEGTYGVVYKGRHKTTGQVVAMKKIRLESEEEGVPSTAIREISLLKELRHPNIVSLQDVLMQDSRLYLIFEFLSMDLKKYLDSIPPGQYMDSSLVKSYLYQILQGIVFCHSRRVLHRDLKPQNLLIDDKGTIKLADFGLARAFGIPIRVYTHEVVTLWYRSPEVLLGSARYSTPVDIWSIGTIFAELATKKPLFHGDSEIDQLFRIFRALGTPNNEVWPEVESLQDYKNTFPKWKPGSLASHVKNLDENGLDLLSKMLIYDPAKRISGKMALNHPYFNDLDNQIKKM
Sequence (P14635 whole entry partner): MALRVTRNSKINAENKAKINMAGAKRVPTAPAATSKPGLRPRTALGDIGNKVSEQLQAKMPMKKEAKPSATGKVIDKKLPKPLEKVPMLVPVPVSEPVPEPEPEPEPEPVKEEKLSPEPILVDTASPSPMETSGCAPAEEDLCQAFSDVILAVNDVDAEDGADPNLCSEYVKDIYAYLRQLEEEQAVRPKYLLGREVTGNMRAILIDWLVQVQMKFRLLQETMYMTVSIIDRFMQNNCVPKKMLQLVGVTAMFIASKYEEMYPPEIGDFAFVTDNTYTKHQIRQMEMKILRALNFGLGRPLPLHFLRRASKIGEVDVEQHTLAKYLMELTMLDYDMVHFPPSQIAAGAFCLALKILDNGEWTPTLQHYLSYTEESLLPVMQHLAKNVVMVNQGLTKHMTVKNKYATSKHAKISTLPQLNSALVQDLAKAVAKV
Assay Readout: IC50 (nM)
Give a bare numeral; the unit nM is implied.

Record request: IC50 value, item CS(=O)(=O)N1CCC(Nc2ncc3cc(C#N)c(=O)n(C4CCCC4)c3n2)CC1
47.9

====

molecular target: CDK4-CYCLIND1 (Homo sapiens); test: Microfluidic LabChip inhibition assay, CDK4-CYCLIND1; assay type: biochemical; conditions: Table 3a; ATP 200 μM; second values in parentheses on the line below, not explained; read-out: CDK4 CyclinD1 IC50
Assay Readout: IC50 (nM)

Compound | IC50 (nM)
CN1CCN(c2ccc(Nc3ncc4cc(C(=O)N(C)C)c(=O)n(C5CCCC5)c4n3)cc2F)CC1 [Compound B139] | 7.4

I. CC(=O)c1c(C)c2cnc(Nc3ccc(OCCN(C)C)cn3)nc2n(C2CCCC2)c1=O [Compound B65]
II. CC(=O)c1c(C)c2cnc(Nc3ccc(N4CCN(C)CC4)cc3)nc2n(C23CC(C2)C3)c1=O [Compound B96]
Quick one: lower IC50, I or II ? Answer by stating the label of the chosen item.
I
(I: 1.47 nM, II: 7.54 nM)

P. CC(=O)c1c(C)c2cnc(Nc3ccc(OCCN4CCCCC4)cn3)nc2n(C2CCCC2)c1=O [Compound B67]
Q. CNC(=O)c1cc2cnc(Nc3ccc(N4CCN(C)CC4)cc3)nc2n(C2CCCC2)c1=O [Compound B143]
Quick one: lower IC50, P or Q ? Answer by stating the label of the chosen item.
Q

====

molecular target: CDK2-CYCLINA (Homo sapiens); experiment: Microfluidic LabChip inhibition assay, CDK2-CYCLINA; type: biochemical; details: Table 3b; ATP 50 μM
pIC50: −log10 of the molar value.
Assay Readout: pIC50

Compound | Assay Readout | Endpoint Value
CC(=O)c1c(C)c2cnc(Nc3ccc(OCCN(C)C)cc3)nc2n(C2CCCC2)c1=O [Compound B60] | pIC50 | 7.11

I. CC(=O)c1c(C)c2cnc(Nc3ccc(N4CCN(C)CC4)cc3)nc2n(C23CC(C2)C3)c1=O
II. CC(=O)c1c(C)c2cnc(Nc3ccc(OCCN(C)C)cc3)nc2n(C2CCCC2)c1=O [Compound B59]
Quick one: lower pIC50, I or II ? Answer by stating the label of the chosen item.
I
(I: 5.55, II: 6.68)

====

Molecular target: CDK7 CyclinH (Homo sapiens, UniProt P50613)
Sequence (P50613 whole entry): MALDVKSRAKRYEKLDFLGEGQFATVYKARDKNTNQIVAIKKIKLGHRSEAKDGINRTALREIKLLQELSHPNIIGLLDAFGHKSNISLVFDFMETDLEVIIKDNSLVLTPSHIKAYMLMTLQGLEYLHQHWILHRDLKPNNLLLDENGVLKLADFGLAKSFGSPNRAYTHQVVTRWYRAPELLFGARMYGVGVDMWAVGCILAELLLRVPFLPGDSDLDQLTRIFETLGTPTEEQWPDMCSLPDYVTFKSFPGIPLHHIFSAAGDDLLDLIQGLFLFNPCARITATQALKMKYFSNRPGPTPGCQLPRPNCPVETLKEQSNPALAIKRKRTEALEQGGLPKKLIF
Sequence (P51946 whole entry partner): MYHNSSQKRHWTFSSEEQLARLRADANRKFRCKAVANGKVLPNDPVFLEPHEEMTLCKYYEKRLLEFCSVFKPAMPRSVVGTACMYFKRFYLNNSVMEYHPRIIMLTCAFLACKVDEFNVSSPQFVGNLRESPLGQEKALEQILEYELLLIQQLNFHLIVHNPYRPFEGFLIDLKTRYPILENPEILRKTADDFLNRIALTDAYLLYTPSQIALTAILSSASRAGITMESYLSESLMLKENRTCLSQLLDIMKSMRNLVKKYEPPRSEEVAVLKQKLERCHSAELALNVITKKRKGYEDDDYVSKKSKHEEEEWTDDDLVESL
Sequence (P51948 whole entry partner): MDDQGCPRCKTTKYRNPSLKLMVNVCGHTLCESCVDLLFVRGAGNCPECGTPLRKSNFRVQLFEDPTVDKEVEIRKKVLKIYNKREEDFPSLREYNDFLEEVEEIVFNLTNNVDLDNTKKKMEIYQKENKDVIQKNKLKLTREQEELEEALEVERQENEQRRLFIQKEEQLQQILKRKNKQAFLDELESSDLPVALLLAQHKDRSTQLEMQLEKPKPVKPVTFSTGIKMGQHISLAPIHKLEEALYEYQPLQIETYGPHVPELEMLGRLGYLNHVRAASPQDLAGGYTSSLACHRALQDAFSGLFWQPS
Assay: Inhibition assay, CDK7 CyclinH
Type: biochemical
Conditions: Table 3a
Description: The reaction was terminated by the addition of EDTA. The plates were analyzed using a Caliper LabChip 3000. Additional inhibition assays were performed as described above.
pIC50: −log10 of the molar value.
Assay Readout: pIC50

Below, 3 compounds whose answers are already recorded.
Compound | pIC50
CC(=O)c1c(C)c2cnc(Nc3ccc(OCCN(C)C)cc3)nc2n(C2CCCC2)c1=O [Compound B60] | 5.96
CC(=O)c1c(C)c2cnc(Nc3ccc(N4CC(C)NC(C)C4)cc3)nc2n(C2CCCC2)c1=O (centres unmarked) [Compound B150] | 6.18
CN1CC2(C1)CN(c1ccc(Nc3ncc4cc(C#N)c(=O)n(C5CCCC5)c4n3)cc1)C2 [Compound B159] | 5.62

P. CC(=O)c1c(C)c2cnc(Nc3ccc(N(C)CCN(C)C)cc3)nc2n(C23CC(C2)C3)c1=O [Compound B154]
Q. CC(=O)c1c(C)c2cnc(Nc3ccc(N(C)CCN(C)C)cc3)nc2n(C2CCCC2)c1=O [Compound B155]
Identify the entry with the larger pIC50. Options: P and Q Answer by stating the label of the chosen item.
Q
